- System: HDQ-P1
- measurement_notes: normalised response (% of control), CellTox Green; higher = less cell death (100 = DMSO, 0 = benzethonium chloride kill control)
- condition_description: incubation time: 72 h
measured_parameter: normalised response (%)
// note: answer is a bare numeric in %

Look over these answered cases.
# compound, normalised response, %
records = [
    ("CC(C)NC[C@@H](C(=O)N1CCN(c2ncnc3c2[C@H](C)C[C@H]3O)CC1)c1ccc(Cl)cc1 [GDC-0068] (10000 nM)", 67.2),
    ("Cc1c(N)nc([C@H](CC(N)=O)NC[C@H](N)C(N)=O)nc1C(=O)N[C@H](C(=O)N[C@H](C)[C@@H](O)[C@H](C)C(=O)N[C@H](C(=O)NCCc1nc(-c2nc(C(=O)NCCC[S+](C)C)cs2)cs1)[C@@H](C)O)[C@@H](OC1OC(CO)C(O)C(O)C1OC1OC(CO)C(O)C(OC(N)=O)C1O)c1cnc[nH]1 (some centres not stated) [Bleomycin] (10000 nM)", 95.6),
    ("O=C(c1cc(Cc2n[nH]c(=O)c3ccccc23)ccc1F)N1CCN(C(=O)C2CC2)CC1 [Olaparib] (1000 nM)", 71.5),
    ("COc1cc2c(cc1-c1c(C)noc1C)ncc1[nH]c(=O)n([C@H](C)c3ccccn3)c12 [I-BET151] (100 nM)", 89.7),
    ("CN1CCN(c2nc(C3=C(c4c[nH]c5ccccc45)C(=O)NC3=O)c3ccccc3n2)CC1 [Sotrastaurin] (100 nM)", 101),
]

// recorded normalised response for CCCc1cc(C)[nH]c(=O)c1CNC(=O)c1cc(-c2ccnc(N3CCN(C)CC3)c2)cc2c1cnn2C(C)C [GSK343] (100 nM) : 105

// recorded normalised response for CO[C@H](C(=O)[C@@H](O)[C@@H](C)O)[C@@H]1Cc2cc3cc(O[C@H]4C[C@@H](O[C@@H]5C[C@@H](O)[C@H](O)[C@@H](C)O5)[C@H](O)[C@@H](C)O4)c(C)c(O)c3c(O)c2C(=O)[C@H]1O[C@H]1C[C@@H](O[C@@H]2C[C@@H](O)[C@@H](O[C@@H]3C[C@](C)(O)[C@H](O)[C@@H](C)O3)[C@@H](C)O2)[C@H](O)[C@@H](C)O1 [Plicamycin] (1000 nM) : 97.8

// recorded normalised response for CCc1cnn2c(NCc3ccc[n+]([O-])c3)cc(N3CCCC[C@H]3CCO)nc12 [Dinaciclib] (10 nM) : 72.3

// recorded normalised response for CN1CCN(c2nc(C3=C(c4c[nH]c5ccccc45)C(=O)NC3=O)c3ccccc3n2)CC1 [Sotrastaurin] (1000 nM) : 66.9

// recorded normalised response for Cc1cc2c(F)c(Oc3ncnn4cc(OC[C@@H](C)O)c(C)c34)ccc2[nH]1 [Brivanib] (100 nM) : 106

// recorded normalised response for CCN(CC)CCOc1ccc(C(=C(Cl)c2ccccc2)c2ccccc2)cc1 [Clomifene] (1000 nM) : 90.2

// recorded normalised response for CC(C)C[C@H](NC(=O)[C@H](CCc1ccccc1)NC(=O)CN1CCOCC1)C(=O)N[C@@H](Cc1ccccc1)C(=O)N[C@@H](CC(C)C)C(=O)[C@@]1(C)CO1 [Carfilzomib] (1000 nM) : -14.6

----------
- Test system: MCF-10A
- measurement_notes: normalised response (% of control), CellTiter-Glo; higher = more viable cells (100 = DMSO, 0 = benzethonium chloride kill control)
- condition_description: incubation time: 72 h
measured_parameter: normalised response (%)
// note: answer is a bare numeric in %

# molecule, assay_system, numeric_result
measured = [
    ("CC(C)NC[C@@H](C(=O)N1CCN(c2ncnc3c2[C@H](C)C[C@H]3O)CC1)c1ccc(Cl)cc1 [GDC-0068] (1 nM)", "MCF-10A", 106),
    ("CCc1cnn2c(NCc3ccc[n+]([O-])c3)cc(N3CCCC[C@H]3CCO)nc12 [Dinaciclib] (0.1 nM)", "MCF-10A", 106),
    ("Cc1cc2c(F)c(Oc3ncnn4cc(OC[C@@H](C)O)c(C)c34)ccc2[nH]1 [Brivanib] (100 nM)", "MCF-10A", 111),
]

// recorded normalised response for Cn1cc(C[C@@H](N)C(=O)O)c2ccccc21 [1-methyl-D-tryptophan] (500 nM) : 104

----------
- Tested on: HCC1599
- measurement_notes: normalised response (% of control), CellTiter-Glo; higher = more viable cells (100 = DMSO, 0 = benzethonium chloride kill control)
- condition_description: incubation time: 72 h
measured_parameter: normalised response (%)
// note: answer is a bare numeric in %

Look over these answered cases.
# compound, normalised response / %
measured = [
    ("C[C@@H](C(=O)O)c1ccc(-c2ccccc2)c(F)c1 [Tarenflurbil] (100 nM)", 106),
    ("CC(C)C(=O)Nc1ccc([N+](=O)[O-])c(C(F)(F)F)c1 [Flutamide] (100 nM)", 111),
    ("N[C@@H](Cc1ccc(N(CCCl)CCCl)cc1)C(=O)O [Melphalan] (125 nM)", 104),
    ("C[C@]12C=CC(=O)C=C1CC[C@@H]1[C@@H]2C(=O)C[C@@]2(C)[C@H]1CC[C@]2(O)C(=O)CO [Prednisone] (100 nM)", 133),
]

// recorded normalised response for CCCc1cc(C)[nH]c(=O)c1CNC(=O)c1cc(-c2ccnc(N3CCN(C)CC3)c2)cc2c1cnn2C(C)C [GSK343] (100 nM) : 82.2

// recorded normalised response for COc1cc2c(N3CCN(C(=O)Nc4ccc(OC(C)C)cc4)CC3)ncnc2cc1OCCCN1CCCCC1 [Tandutinib] (10 nM) : 106

// recorded normalised response for CO[C@H]1C[C@@H]2CC[C@@H](C)[C@@](O)(O2)C(=O)C(=O)N2CCCC[C@H]2C(=O)O[C@H]([C@H](C)C[C@@H]2CC[C@@H](O)[C@H](OC)C2)CC(=O)[C@H](C)/C=C(\C)[C@@H](O)[C@@H](OC)C(=O)[C@H](C)C[C@H](C)/C=C/C=C/C=C/1C [Sirolimus] (1 nM) : 103

// recorded normalised response for NC(=O)c1cccc2cn(-c3ccc([C@@H]4CCCNC4)cc3)nc12 [MK-4827] (100 nM) : 90

// recorded normalised response for CCc1cnn2c(NCc3ccc[n+]([O-])c3)cc(N3CCCC[C@H]3CCO)nc12 [Dinaciclib] (10 nM) : 75.8

----------
- Test system: HCC1143
- measurement_notes: normalised viability (% of control), CellTiter-Blue; higher = more viable cells (about 100 = DMSO control)
- condition_description: 10 nM; incubation time: 72 h
Below, each entry is listed with its recorded normalised viability.
// note: answer is a bare numeric in %

# molecule, assay_system, measurement_units, normalised viability
rows = [
    ("C[C@@H](CN1CC(=O)NC(=O)C1)N1CC(=O)NC(=O)C1 [Dexrazoxane]", "HCC1143", "%", 88),
]

// recorded normalised viability for C[C@@H](C(=O)O)c1ccc(-c2ccccc2)c(F)c1 [Tarenflurbil] : 86.4

// recorded normalised viability for C[C@]12C=CC(=O)C=C1CC[C@@H]1[C@@H]2C(=O)C[C@@]2(C)[C@H]1CC[C@]2(O)C(=O)CO [Prednisone] : 91

// recorded normalised viability for Nc1nc(Cl)nc2c1ncn2[C@@H]1O[C@H](CO)[C@@H](O)[C@@H]1F [Clofarabine] : 74.5

----------
- Tested on: Hs578T
- measurement_notes: normalised response (% of control), CellTox Green; higher = less cell death (100 = DMSO, 0 = benzethonium chloride kill control)
- condition_description: incubation time: 72 h
measured_parameter: normalised response (%)
// note: answer is a bare numeric in %

Look over these answered cases.
# molecule, normalised response / %
records = [
    ("Cc1c(C(=O)Nc2ccc(N3C[C@@H](C)O[C@@H](C)C3)nc2)cccc1-c1ccc(OC(F)(F)F)cc1 [Erismodegib] (100 nM)", 109),
    ("CCc1c(C(=O)C(N)=O)c2c(OCC(=O)O)cccc2n1Cc1ccccc1 [Varespladib] (10000 nM)", 121),
    ("COc1cc(Nc2ncc(F)c(Nc3ccc4c(n3)N(COP(=O)(O)O)C(=O)C(C)(C)O4)n2)cc(OC)c1OC [Fostamatinib] (2500 nM)", 19.2),
    ("COc1cc2c(Oc3ccc(NC(=O)C4(C(=O)Nc5ccc(F)cc5)CC4)cc3F)ccnc2cc1OCCCN1CCOCC1 [Foretinib] (1000 nM)", 75.7),
    ("Nc1nc(Cl)nc2c1ncn2[C@@H]1O[C@H](CO)[C@@H](O)[C@@H]1F [Clofarabine] (100 nM)", 90.3),
    ("NC1(c2ccc(-c3nc4ccn5c(=O)[nH]nc5c4cc3-c3ccccc3)cc2)CCC1 [MK-2206] (10 nM)", 96.1),
    ("NC(=O)NO [Hydroxyurea] (1000 nM)", 101),
    ("CN1CCN(c2nc(C3=C(c4c[nH]c5ccccc45)C(=O)NC3=O)c3ccccc3n2)CC1 [Sotrastaurin] (10000 nM)", 118),
]

Next molecule, please.
Observed normalised response, Hs578T, CC[C@@H]1C(=O)N(C)c2cnc(Nc3ccc(C(=O)N[C@H]4CC[C@H](N5CCN(CC6CC6)CC5)CC4)cc3OC)nc2N1C(C)C [Volasertib] (100 nM) : 61
